Test: Cytotoxicity against mouse L929 cells assessed as cell growth inhibition at 120 uM measured after 48 hrs by CCK8 assay relative to control
Assay type: cell-based
observed-property: inhibition at 48 h, 120 µM (%)
Quick note: give the figure in %, leave out the unit.

>  <smiles-representation>
Cc1cc(C)n(Cc2ccc(C(=O)Nc3ccc(Cl)c(Cl)c3)s2)n1

>  <unit-descriptor>
%

>  <inhibition at 48 h, 120 µM>
-4.6

$$$$
>  <smiles-representation>
Cc1cc(C)n(Cc2ccc(C(=O)Nc3ccc4cc[nH]c4c3)s2)n1

>  <unit-descriptor>
%

>  <inhibition at 48 h, 120 µM>
25.5

$$$$
>  <smiles-representation>
Cc1cc(C)n(Cc2ccc(C(=O)Nc3ccc(F)cc3C)s2)n1

>  <unit-descriptor>
%

>  <inhibition at 48 h, 120 µM>
23.9

$$$$
>  <smiles-representation>
O=C(Nc1cc(Cl)cc(Cl)c1)c1ccc(Cn2nc(C(F)(F)F)cc2C(F)(F)F)o1

>  <unit-descriptor>
%

>  <inhibition at 48 h, 120 µM>
90.6

$$$$

Moving on to another molecule below.
inhibition at 48 h, 120 µM reading for "Cc1cc(C)n(Cc2ccc(C(=O)Nc3ccc(-c4cccnc4)cc3)s2)n1" : 28.6

###

Test: Oral bioavailability in ICR mouse at 10 mg/kg measured up to 24 hrs by HPLC-MS/MS analysis
Assay type: ADME, organism-based
Settings: in vivo
Recorded bioavailability by entry
Quick note: give the figure in %, leave out the unit.

>  <smiles-representation>
Cc1cc(C)n(Cc2ccc(C(=O)Nc3ccc(Cl)c(Cl)c3)s2)n1

>  <bioavailability (%)>
63.3

$$$$

Moving on to another molecule below.
bioavailability reading for "O=C(Nc1cc(Cl)cc(Cl)c1)c1ccc(Cn2nc(C(F)(F)F)cc2C(F)(F)F)o1" : 72.2

###

Experiment: Cytotoxicity against human HEK293 cells assessed as cell growth inhibition at 60 uM measured after 48 hrs by CCK8 assay relative to control
Type: cell-based
Recorded inhibition at 48 h, 60 µM by entry
Quick note: give the figure in %, leave out the unit.

Use these answered entries as a reference point.
>  <smiles-representation>
Cc1cc(C)n(Cc2ccc(C(=O)Nc3ccc(F)cc3C)s2)n1

>  <unit-descriptor>
%

>  <inhibition at 48 h, 60 µM>
16.3

$$$$
>  <smiles-representation>
Cc1cc(C)n(Cc2ccc(C(=O)Nc3ccc(-c4cccnc4)cc3)s2)n1

>  <unit-descriptor>
%

>  <inhibition at 48 h, 60 µM>
6.5

$$$$
>  <smiles-representation>
O=C(Nc1cc(Cl)cc(Cl)c1)c1ccc(Cn2nc(C(F)(F)F)cc2C(F)(F)F)o1

>  <unit-descriptor>
%

>  <inhibition at 48 h, 60 µM>
42

$$$$
>  <smiles-representation>
Cc1cc(C)n(Cc2ccc(C(=O)Nc3ccc4cc[nH]c4c3)s2)n1

>  <unit-descriptor>
%

>  <inhibition at 48 h, 60 µM>
-7.4

$$$$

Moving on to another molecule below.
inhibition at 48 h, 60 µM reading for "Cc1cc(C)n(Cc2ccc(C(=O)Nc3ccc(Cl)c(Cl)c3)s2)n1" : -5.2

###

Experiment: Brain to blood partition coefficient of the compound
Format: physicochemical, tissue-based
Settings: read-out: logBB (converted)
Output schema: class label derived from Kp. Mapping: low range (below 0.4), mid range (0.4 to below 1), high range (1 or more)

>  <smiles-representation>
O=C(Nc1ccc(Cl)cc1Cl)c1ccc(Cn2nc(C(F)(F)F)cc2C(F)(F)F)o1

>  <label-class>
high range

$$$$

// bin(item) where item = "Cc1cc(Br)ccc1NC(=O)c1ccc(Cn2nc(C(F)(F)F)cc2C(F)(F)F)o1" high range

// bin(item) where item = "Cc1cc(C)n(Cc2ccc(C(=O)Nc3ccc(Cl)cc3C(=O)NCCCO)o2)n1" low range

// bin(item) where item = "Cc1cc(C)n(Cc2ccc(C(=O)Nc3ccc(-c4cccnc4)cc3C)s2)n1" low range

// bin(item) where item = "Cc1cc(C)n(Cc2ccc(C(=O)Nc3ccccc3C)o2)n1" mid range

// bin(item) where item = "Cc1cc(C)n(Cc2ccc(C(=O)Nc3ccc(-c4ccccc4)cc3C)s2)n1" mid range
